# Measurement Target: human Tie2 (Homo sapiens, UniProt Q02763)
# Construct: corresponding to the intracellular domain amino acids 776-1124 was generated by PCR
# Sequence (Q02763 776-1124): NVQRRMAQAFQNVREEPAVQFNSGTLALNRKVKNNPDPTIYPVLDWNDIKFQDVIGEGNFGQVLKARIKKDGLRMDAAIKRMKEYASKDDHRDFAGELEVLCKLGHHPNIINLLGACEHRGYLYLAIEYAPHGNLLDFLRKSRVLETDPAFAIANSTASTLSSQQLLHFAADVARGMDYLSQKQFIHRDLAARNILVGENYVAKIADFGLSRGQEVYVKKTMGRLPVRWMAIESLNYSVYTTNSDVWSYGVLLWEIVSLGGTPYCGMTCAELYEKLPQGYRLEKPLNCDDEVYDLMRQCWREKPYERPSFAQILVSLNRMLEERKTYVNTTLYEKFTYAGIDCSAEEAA
# Assay Text: phosphorylation of PLC by Tie2 (GST-Tie2), FlashPlate
# Experimental Conditions: read-out: TIE2 IC 50

- Sample Smiles: "CC(C)(C)c1cc(NC(=O)Nc2ccc(-c3c(C(N)=O)[nH]c4ccccc34)cc2)no1"
  IC50, nM: 3
- Sample Smiles: "Cn1c(C(N)=O)c(-c2ccc(NC(=O)Nc3cc(C(F)(F)F)ccc3F)cc2)c2ccccc21"
  IC50, nM: 27
- Sample Smiles: "CC(C)c1ccc(NC(=O)Nc2ccc(-c3c(C(N)=O)[nH]c4ccccc34)cc2)cc1"
  IC50, nM: 151
- Sample Smiles: "NC(=O)c1[nH]c2c(NCCO)cccc2c1-c1ccc(NC(=O)Nc2cc(C(F)(F)F)ccc2F)cc1"
  IC50, nM: 6
